Molecular target: High affinity nerve growth factor receptor (Homo sapiens)
Assay: Inhibition of wild type TEL fused TRKA (unknown origin) transfected in mouse BAF3 cells assessed as growth inhibition after 72 hrs by CCK8 assay
Format: cell-based
Measurement kind: log10 GI50 (log10 of the value in nM)
Response schema: value (number) is log10 of GI50 in units of nM.

Cc1nc(NC(=O)CN2CCN(C)CC2)sc1-c1ccc2c(-c3ccn(C)n3)n[nH]c2c1 :: 1.86
Cc1nc(NC(=O)c2cccc(C(F)(F)F)c2)sc1-c1ccc2c(/C=C/c3ccccn3)n[nH]c2c1 :: 0.48
CN1CCN(Cc2ccc(NC(=O)CCSc3ccc4c(-c5ccncc5)n[nH]c4c3)cc2C(F)(F)F)CC1 :: 2.65

Provide log10 GI50 for all items below, preserving their order.
1. Cc1nc(NC(=O)Cc2cccc(Cl)c2)sc1-c1ccc2c(/C=C/c3ccccn3)n[nH]c2c1
2. CN1CCN(Cc2ccc(NC(=O)CCSc3ccc4c(/C=C/c5ccccn5)n[nH]c4c3)cc2C(F)(F)F)CC1
3. Cc1nc(NC(=O)CN2CCN(C)CC2)sc1-c1ccc2c(/C=C/c3ccccn3)n[nH]c2c1
4. CN1CCN(Cc2ccc(C(=O)NCCSc3ccc4c(/C=C/c5ccccn5)n[nH]c4c3)cc2C(F)(F)F)CC1
5. Cc1nc(NC(=O)c2ccc(CN3CCN(C)CC3)cc2)sc1-c1ccc2c(/C=C/c3ccccn3)n[nH]c2c1
6. Cc1nc(NC(=O)CC2CCN(C)CC2)sc1-c1ccc2c(/C=C/c3ccccn3)n[nH]c2c1

Return:
[0.30, 1.80, 0.93, 2.57, 0.90, 1.51]

###

Test: Inhibition of LMNA fused TRKA F589L mutant (unknown origin) transfected in mouse BaF3 cells assessed as reduction in phosphorylation at Y490 residue after 2 hrs by Western blot analysis
Conditions: Homo sapiens, BaF3, 2 h
Measurement kind: EC50
Reply with the number and its unit after it.

Enquiry: Can you share its EC50? I mean this molecule: Cc1nc(NC(=O)CN2CCN(C)CC2)sc1-c1ccc2c(/C=C/c3ccccn3)n[nH]c2c1
Return: 21 nM

###

Target: High affinity nerve growth factor receptor (Homo sapiens, UniProt P04629, G595R)
Sequence (P04629 33-796 G595R limits assumed): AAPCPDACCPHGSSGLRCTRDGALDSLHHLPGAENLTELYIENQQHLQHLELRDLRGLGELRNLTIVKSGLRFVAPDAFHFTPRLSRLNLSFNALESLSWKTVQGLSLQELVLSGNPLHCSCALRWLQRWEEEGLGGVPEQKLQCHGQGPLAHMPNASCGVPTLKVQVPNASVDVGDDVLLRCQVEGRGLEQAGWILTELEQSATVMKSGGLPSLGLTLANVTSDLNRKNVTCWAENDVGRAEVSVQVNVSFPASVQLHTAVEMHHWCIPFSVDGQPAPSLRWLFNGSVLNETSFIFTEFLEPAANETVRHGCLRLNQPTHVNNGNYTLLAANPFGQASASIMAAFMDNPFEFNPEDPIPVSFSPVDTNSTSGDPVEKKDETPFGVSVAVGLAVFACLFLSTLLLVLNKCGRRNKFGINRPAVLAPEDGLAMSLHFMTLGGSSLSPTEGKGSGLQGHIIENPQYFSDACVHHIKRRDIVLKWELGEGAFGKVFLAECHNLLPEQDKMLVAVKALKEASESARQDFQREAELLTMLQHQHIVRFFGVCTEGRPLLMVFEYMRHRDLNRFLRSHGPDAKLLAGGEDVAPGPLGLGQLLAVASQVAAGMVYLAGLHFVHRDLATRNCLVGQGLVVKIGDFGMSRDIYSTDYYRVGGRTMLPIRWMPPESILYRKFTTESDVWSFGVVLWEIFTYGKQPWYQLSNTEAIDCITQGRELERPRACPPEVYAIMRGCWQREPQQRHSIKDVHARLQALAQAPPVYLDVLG
Assay: Inhibition of LMNA fused TRKA G595R mutant (unknown origin) transfected in mouse BaF3 cells assessed as reduction in phosphorylation at Y490 residue after 2 hrs by Western blot analysis
Measurement kind: EC50 (µM)
Give bare numbers, in µM.

Enquiry: Can you share its EC50? I mean this molecule: Cc1nc(NC(=O)CN2CCN(C)CC2)sc1-c1ccc2c(/C=C/c3ccccn3)n[nH]c2c1
Return: 0.12

###

Assay: Apparent volume of distribution in mouse at 1 mg/kg, iv
Type: ADME, organism-based
Conditions: in vivo, read-out: Vz
Measurement kind: Vd (L/kg)
One number for each entry, in L/kg.

Enquiry: Can you share its Vd? I mean this molecule: Cc1nc(NC(=O)CN2CCN(C)CC2)sc1-c1ccc2c(/C=C/c3ccccn3)n[nH]c2c1
Return: 4.93

###

Assay: Oral bioavailability in mouse at 10 mg/kg
Type: ADME, organism-based
Details: in vivo
Measurement kind: bioavailability (%)
Numbers only, in %.

Enquiry: Can you share its bioavailability? I mean this molecule: Cc1nc(NC(=O)CN2CCN(C)CC2)sc1-c1ccc2c(/C=C/c3ccccn3)n[nH]c2c1
Return: 20
